Biological target: Neuropilin-1 (Homo sapiens, UniProt O14786)
Sequence (O14786 whole entry): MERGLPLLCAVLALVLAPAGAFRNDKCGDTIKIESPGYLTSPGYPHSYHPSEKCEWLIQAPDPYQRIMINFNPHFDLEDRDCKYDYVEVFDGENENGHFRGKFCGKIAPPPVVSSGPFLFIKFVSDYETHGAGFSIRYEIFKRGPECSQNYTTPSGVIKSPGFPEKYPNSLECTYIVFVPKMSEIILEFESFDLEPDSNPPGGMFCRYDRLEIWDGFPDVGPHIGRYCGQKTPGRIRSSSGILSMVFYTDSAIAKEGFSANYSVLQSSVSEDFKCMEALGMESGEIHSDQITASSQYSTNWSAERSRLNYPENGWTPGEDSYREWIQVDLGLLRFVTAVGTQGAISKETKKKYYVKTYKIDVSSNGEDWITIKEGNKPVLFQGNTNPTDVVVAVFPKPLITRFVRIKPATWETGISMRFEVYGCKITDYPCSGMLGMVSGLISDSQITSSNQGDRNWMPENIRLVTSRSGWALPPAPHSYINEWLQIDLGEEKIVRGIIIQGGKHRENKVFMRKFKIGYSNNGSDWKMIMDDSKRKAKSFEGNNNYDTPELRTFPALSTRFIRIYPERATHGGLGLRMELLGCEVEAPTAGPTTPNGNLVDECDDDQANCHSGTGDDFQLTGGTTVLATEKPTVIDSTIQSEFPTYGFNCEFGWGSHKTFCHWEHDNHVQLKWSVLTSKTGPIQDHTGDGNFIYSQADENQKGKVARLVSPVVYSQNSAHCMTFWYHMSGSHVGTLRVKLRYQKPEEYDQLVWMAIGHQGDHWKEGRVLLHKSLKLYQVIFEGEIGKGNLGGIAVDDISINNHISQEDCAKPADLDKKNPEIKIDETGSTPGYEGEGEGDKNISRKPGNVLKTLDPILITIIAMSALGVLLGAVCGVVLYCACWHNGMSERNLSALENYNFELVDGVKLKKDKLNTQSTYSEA
Assay: Inhibition of recombinant human biotinylated VEGF-165A expressed in HEK293 cells binding to immobilized recombinant full length human FC-tagged NRP1 (chimera active) expressed in HEK293 cells using TMB as substrate incubated for 2 hrs followed by substrate addition by competitive ELISA
pIC50: −log10 of the molar value.
metric.name: pIC50

record.smiles	pIC50
CCc1nnc(NC(=O)CSc2nnc(-c3ccc(O)cc3)n2-c2cccc(C)c2)s1	4.38

I. CCc1nnc(NC(=O)CSc2nnc(-c3ccccc3)n2-c2cccc(C)c2)s1
II. CCc1nnc(NC(=O)CSc2nnc(-c3ccc(C)cc3)n2-c2cccc(C)c2)s1
Exercise: Pick one: I or II . Which one has the lower reported pIC50? // caller expects the label of the chosen entry
Solution: I

---

Molecular target: Neuropilin-1 (Homo sapiens)
Assay: Inhibition of recombinant human biotinylated VEGF-165A expressed in HEK293 cells binding to immobilized recombinant full length human FC-tagged NRP1 (chimera active) expressed in HEK293 cells at 50 uM using TMB as substrate incubated for 2 hrs followed by substrate addition by competitive ELISA relative to control
metric.name: inhibition (%)

record.smiles	unit.label	inhibition
CCc1nnc(NC(=O)CSc2nnc(-c3ccccc3)[nH]2)s1	%	2.1
CCc1nnc(NC(=O)CSc2nnc(-c3cccnc3)n2-c2cccc(C)c2)s1	%	0
CCc1nnc(NC(=O)CSc2nnc(-c3ccc(O)cc3)n2-c2cccc(C)c2)s1	%	59.9
CCc1nnc(NC(=O)CSc2nnc(-c3ccccc3)n2-c2ccccc2Cl)s1	%	5.3
CCc1nnc(NC(=O)CSc2nnc(-c3ccccc3)n2-c2ccccc2)s1	%	4.8
O=C(CSc1nnc(-c2ccccc2)n1-c1cccc(Cl)c1)Nc1nncs1	%	20.3

I. CCc1nnc(NC(=O)CSc2nnc(Cc3ccccc3)n2-c2cccc(C)c2)s1
II. CCc1nnc(NC(=O)CSc2nnc(-c3ccccc3)n2-c2cccc(C)c2)s1
III. CCc1nnc(NC(=O)CSc2nnc(-c3ccc(N)cc3)n2-c2cccc(C)c2)s1
Exercise: Let's sort these by inhibition, smallest first. Go ahead? Answer by naming the labels in the order asked.
Solution: I, III, II

---

Target: Neuropilin-1 (Homo sapiens, UniProt O14786)
Assay: Inhibition of biotinylated […] binding to NRP1 (unknown origin) measured after 2 hrs chemiluminescence analysis
metric.name: IC50 (µM)
Answer with a number only, understood to be in µM.

Exercise: Provide only the value of recorded IC50 for "Cc1ccc(-c2nc3ccccc3[nH]2)cc1NC(=S)NC(=O)c1ccc2c(c1)OCCO2"
Solution: 34

---

Molecular target: Neuropilin-1 (Homo sapiens, UniProt O14786)
Experiment: Inhibition of recombinant human biotinylated VEGF-165A expressed in HEK293 cells binding to immobilized recombinant full length human FC-tagged NRP1 (chimera active) expressed in HEK293 cells at 50 uM using TMB as substrate incubated for 2 hrs followed by substrate addition by competitive ELISA relative to control
metric.name: inhibition (%)

record.smiles	unit.label	inhibition
CCc1nnc(NC(=O)CSc2nnc(-c3ccccc3)n2-c2cccnc2)s1	%	0

a. CCc1nnc(NC(=O)CSc2nncn2-c2cccc(Cl)c2)s1
b. CCc1nnc(NC(=O)CSc2nnc(-c3ccccc3)n2-c2ccc(Cl)cc2)s1
Exercise: Please tell me which of the two, a or b , has the higher reported inhibition value. Refer to your chosen entry by its label in the reply.
Solution: b
(b: 3.2%, a: 0%)

1. CCc1nnc(NC(=O)CSc2nnc(-c3ccccc3)n2-c2cccc(OC)c2)s1
2. CCc1nnc(NC(=O)CSc2nnc(-c3ccccc3)n2-c2cccc(Cl)c2)s1
Exercise: Which of the two items, 1 and 2 , has the greater recorded inhibition? // respond with label for picked entry
Solution: 2

A. CCc1nnc(NC(=O)CSc2nnc(-c3ccccc3)n2Cc2cccc(C)c2)s1
B. O=C(CSc1nnc(-c2ccccc2)n1-c1cccc(Cl)c1)Nc1nnc(C2CC2)s1
Exercise: Lab note: record which item had the higher inhibition, A or B . Answer with the label corresponding to your selection.
Solution: B
(B: 22.5%, A: 4.1%)

---

Molecular target: Neuropilin-1 (Homo sapiens, UniProt O14786)
Assay: Inhibition of recombinant human biotinylated VEGF-165A expressed in HEK293 cells binding to immobilized recombinant full length human FC-tagged NRP1 (chimera active) expressed in HEK293 cells at 50 uM using TMB as substrate incubated for 2 hrs followed by substrate addition by competitive ELISA relative to control
metric.name: inhibition (%)

record.smiles	unit.label	numeric.readout
Cc1cccc(-n2c(SCC(=O)Nc3nnc(C)s3)nnc2-c2ccccc2)c1	%	31.5

1. CCc1nnc(NC(=O)CSc2nnc(-c3ccc(C)cc3)n2-c2cccc(C)c2)s1
2. CCc1nnc(NC(=O)CSc2nnc(-c3cccc(C)c3)n2-c2cccc(C)c2)s1
Exercise: # returns the entry with the larger inhibition; inputs 1 and 2 Use the label to indicate which entry you chose.
Solution: 1
(1: 76%, 2: 12.6%)
